pKi for Matrix metalloproteinase-9 (Homo sapiens), merged from several publications.
pKi: −log10 of the molar value.
Rule: pKi of 8 or more gives 1; anything lower gives -1.

{"columns": ["COMPOUND", "GROUP_LABEL"],
 "data": [
  ["NC(=O)C(Cc1c[nH]c2ccccc12)NC(=O)C(CSc1ccccc1Br)CP(=O)(O)C(Cc1ccccc1)NC(=O)OCc1ccccc1 (stereo not drawn)", -1],
  ["CC(C)C[C@H](CC(=O)NO)C(=O)N[C@@H](Cc1c[nH]c2ccccc12)C(=O)N1CCCC1", -1],
  ["O=C(C[C@@H](Cc1ccc(-c2ccc3c(c2)OCO3)cc1)C(=O)N[C@H]1c2ccccc2C[C@H]1O)NO", -1],
  ["CNC(=O)[C@@H]1CCCN(S(=O)(=O)c2ccccc2)CCCCO[C@H](C(=O)NO)[C@@H](CCCc2ccccc2)C(=O)N1", 1],
  ["Cc1cc(C)cc(COc2ccc([C@]3(C)CCN([C@H](C)C(=O)NO)C3=O)cc2)c1", -1],
  ["CC(C)C[C@H](CC(=O)NO)C(=O)N[C@@H](Cc1c[nH]c2ccccc12)C(=O)NCc1ccncc1", 1]
]}

Ask | Please tell me: is the compound Oc1cccc(O)c1O at or over 8 in terms of pKi?
Reply | -1

Ask | pKi >= 8 for O=C1NCCCC[C@@H](C(=O)NCC(=O)N2CCOCC2)NC(=O)[C@H](Cc2ccc(-c3cc(Cl)cc(Cl)c3)cc2)[C@@H](C(=O)NO)CCCO1 ?
Reply | -1
